Hello, the source for this data is paper PMC10666275, in case you need it.

dihydrofolate reductase (DHFR) enzyme (Homo sapiens, UniProt P00374): reported IC50 for various molecules.
Sequence (P00374 whole entry, species assumed): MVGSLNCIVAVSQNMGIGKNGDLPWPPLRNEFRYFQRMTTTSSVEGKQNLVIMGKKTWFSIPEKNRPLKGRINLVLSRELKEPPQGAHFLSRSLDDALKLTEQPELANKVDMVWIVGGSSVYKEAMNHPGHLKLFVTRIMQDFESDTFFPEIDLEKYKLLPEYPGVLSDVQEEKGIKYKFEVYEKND
Numbers only, in µM.

In the examples that follow, each entry is paired with its recorded IC50.
COc1cc(C2=NNC(c3cn(-c4ccccc4)nc3-c3ccccc3)C2)cc(OC)c1OC (stereo not drawn) :: 5.56
COc1cc(-c2cc(-c3cn(-c4ccccc4)nc3-c3ccccc3)[nH]c(=O)n2)cc(OC)c1OC :: 4.2

Now take the following molecule into account.
IC50 in this record for COc1cc(-c2cc(-c3cn(-c4ccccc4)nc3-c3ccccc3)[nH]c(=S)n2)cc(OC)c1OC : 4.1

====

tested on: P. aeruginosa; experiment: Agar diffusion method, inhibition zones, P. aeruginosa; format: cell-based, Pseudomonas aeruginosa; conditions: Pseudomonas aeruginosa, 24 h, read-out: IZ (inhibition zone)
So I've got a bunch of compounds here, and I need their zone of inhibition at 10000 µg/mL values.
Give bare numbers, in mm.

Some solved entries appear below for comparison.
COc1cc(-c2cc(-c3cn(-c4ccccc4)nc3-c3ccccc3)[nH]c(=N)n2)cc(OC)c1OC [compound 5c] :: 24
COc1cc(C2=NNC(c3cn(-c4ccccc4)nc3-c3ccccc3)C2)cc(OC)c1OC (stereo not shown) [compound 6a] :: 6
COc1cc(C(=O)/C=C\c2cn(-c3ccccc3)nc2-c2ccccc2)cc(OC)c1OC [compound 4] :: 15

# value of zone of inhibition at 10000 µg/mL, P. aeruginosa, item COc1cc(C2=NN(c3ccccc3)C(c3cn(-c4ccccc4)nc3-c3ccccc3)C2)cc(OC)c1OC (stereo not shown) [compound 6b] = 0
